- Test system: Salmonella typhimurium TA98
- EXPERIMENT_DESCRIPTION: Mutagenicity (Ames test)
- Type: cell-based
- MEASUREMENT_PARAMETERS: ¼ MIC, ± SD
Note to self: use fulfilled only for Number of colonies readings below 20; a reading exactly at 20 still gets not fulfilled.

{"COMPOUND": "CCCCCCCCCCCCCCCCN(C)CCC[N+](C)(C)C.COC(=O)[O-] [MeC16]", "LABEL": "fulfilled"}
{"COMPOUND": "CC(=O)[O-].CCCCCCCCCCCCCCCC(=O)N(C)CCC[N+](C)(C)C [AcC16]", "LABEL": "not fulfilled"}
{"COMPOUND": "CCCCCCCCCCCCN(C)CCC[N+](C)(C)C.COC(=O)[O-] [MeC12]", "LABEL": "fulfilled"}
{"COMPOUND": "CCCCCCCCCCCCCCCC(=O)N(C)CCC[N+](C)(C)C.[Br-] [BrC16]", "LABEL": "not fulfilled"}
{"COMPOUND": "CC(=O)[O-].CCCCCCCCCCCC(=O)N(C)CCC[N+](C)(C)C [AcC12]", "LABEL": "not fulfilled"}
{"COMPOUND": "CCCCCCCCCCCCCC(=O)N(C)CCC[N+](C)(C)C.[Br-] [BrC14]", "LABEL": "fulfilled"}
{"COMPOUND": "CCCCCCCCCCCCCCN(C)CCC[N+](C)(C)C.COC(=O)[O-] [MeC14]", "LABEL": "fulfilled"}
{"COMPOUND": "CC(=O)[O-].CCCCCCCCCCCCCC(=O)N(C)CCC[N+](C)(C)C [AcC14]", "LABEL": "not fulfilled"}

Origin of values: paper PMC9757636
